Tested on: NCI-H522 lung
Assay: NCI-60 one-dose screen, 48 h
Conditions: 10 µM unless noted
Description: Growth inhibition of the NCI-H522 human Non-Small Cell Lung tumor cell line is measured as a screen for anti-cancer activity. Cells are grown in 96 well plates and exposed to the test compound for 48 hours. Compounds are tested at a single concentration, which is 10^-5 M for most compounds. The reported endpoint is percent growth (GI% or GIPRCNT), where numbers from 0 - 100% represent growth inhibition, and numbers from -100% - 0 represent cell death. […]
This is part of a sample that, as a whole, favours compounds with a hit. Of some 83,000 tested, about 20% had one in any assay. The source made the active and inactive calls. How the source made its calls: active means growth percent below 10; inactive means the rest.
Possible outcomes: active, inactive

INSERT INTO results (compound, label_value) VALUES
  ('CCCCCCCCn1ccc2cc(NC(=O)CN3CCN(c4cc(C)nc(Cl)n4)CC3)ccc21', 'inactive'),
  ('CCCCn1c(NC(C)=O)c(S(=O)(=O)c2ccccc2)c2nc3ccccc3nc21', 'inactive'),
  ('CN1CCN(Cc2ccc(NC(=O)c3cncc(C#Cc4cnc(N)cc4C#N)c3)cc2C(F)(F)F)CC1', 'active'),
  ('c1cc(OCCN2CCCC2)ccc1CNc1ccc2nc(CCC3CCCCC3)[nH]c2c1', 'inactive'),
  ('CSc1nc2ccc(C)cc2cc1/C=C1/C=C(c2ccccc2)NC1=O', 'inactive'),
  ('Cc1nn(-c2ccc([N+](=O)[O-])cc2)c2ncnc(N/N=C/c3ccccc3O)c12', 'active'),
  ('C/C(Cc1ccc(Cl)cc1)=C(\c1ccc(OCCN2CCCCCC2)cc1)c1ccc(OC(=O)c2ccccc2)cc1', 'inactive'),
  ('CC(O)CNC(Cc1ccccc1)c1ccc2c(c1)OCO2 (configuration not stated)', 'inactive'),
  ('Oc1c(I)cc(I)cc1CN(Cc1ccccn1)Cc1ccccn1', 'inactive'),
  ('N=C(N)c1ccc(-c2ccc(-c3ccccc3)o2)o1', 'inactive'),
  ('Cc1nc2sc(C(=O)Nc3ccccn3)c(N)c2cc1C(C)O (configuration not stated)', 'inactive'),
  ('COCC(=O)Oc1cc(-c2ccc(C)cc2C)c(OC(=O)COC)c(-c2ccc(C)cc2C)c1', 'inactive');

###

test system: UACC-62 melanoma; experiment: NCI-60 one-dose screen, 48 h (100 = growth as untreated, 0 = no growth, -100 = all killed); conditions: 10 µM unless noted
About 83,000 compounds went through this panel and 20% of them were active in at least one assay; those are over-represented in the sample as a whole.
READOUT_NAME: growth (%)

INSERT INTO results (compound, observed_measurement) VALUES
  ('CCOC(=O)c1ccc[nH]1', 103),
  ('C1CCC(N2CN3c4nonc4N4CN(C5CCCCC5)CN5c6nonc6N(C2)C3C45)CC1 (stereo not given)', 88.7),
  ('COC12C=C/C(=C(/C(=O)OCc3cncnc3)C(=O)CCCCCCCCC3(OC)C=C/C(=C(/C(=O)OCc4cncnc4)C(=O)CCCCCCCC1)O3)O2', -56.9),
  ('Nc1ccc(Br)cc1C(F)(F)F', 108),
  ('CCOC(=O)NCCCC(=O)NCCc1ccccc1', 107),
  ('CC(C)(C)c1ccc(C(=O)N/N=C/c2ccc(O)cc2O)cc1', 4.25),
  ('NC(=O)c1ccccc1OCC(=O)Nc1ccc(Cl)c(Cl)c1', 83.3),
  ('CN(C)CCC(=O)C1CC1', 99.2),
  ('C=C1CC[C@@H]2C(C)(C)[C@H](O)CC[C@@]2(C)[C@@H]1COc1ccc2ccc(=O)oc2c1', 24.5),
  ('CC[C@@H](C(=O)[C@@H](C)[C@@H](O)[C@H](C)[C@@H]1O[C@@H]([C@@H](CC)C(=O)ONC(=O)c2ccccc2O)CC[C@@H]1C)C1O[C@]2(C=CC(=O)[C@]3(CC[C@@](C)([C@H]4CC[C@](O)(CC)[C@H](C)O4)O3)O2)[C@H](C)C[C@@H]1C (stereo not given in full)', 63.3);

###

system: RXF 393 renal; assay: NCI-60 one-dose screen, 48 h (100 = growth as untreated, 0 = no growth, -100 = all killed); settings: 10 µM unless noted
The panel holds about 83,000 compounds, 20% with a hit somewhere; the sample as a whole holds those more often.
READOUT_NAME: growth (%)

INSERT INTO results (mol, target_or_system, observed_measurement) VALUES
  ('CCOC(=O)c1c(NC(=O)c2ccccc2)sc2c3c(ccc12)OCN(C)C3', 'RXF 393 renal', -73),
  ('Clc1ccc(Nc2nnc(CNc3ccccc3)c3ccccc23)cc1', 'RXF 393 renal', 25.7),
  ('C[C@@H]1NC(=O)[C@H](Cc2ccccc2)N(Cc2cccnc2)C1=O', 'RXF 393 renal', 108),
  ('O=Nc1ccc(NC(=O)Nc2ccc([N+](=O)[O-])cc2)cc1', 'RXF 393 renal', 119),
  ('O=C(O)CCCCCCCCCCN1C(=O)/C(=C2/C(=O)N(CC(=O)O)c3ccc(Br)cc32)SC1=S', 'RXF 393 renal', 113);

###

Test system: A549/ATCC NSCLC
Experiment: NCI-60 one-dose screen, 48 h (100 = growth as untreated, 0 = no growth, -100 = all killed)
Settings: 10 µM unless noted
Experimental: Growth inhibition of the A549/ATCC human Non-Small Cell Lung tumor cell line is measured as a screen for anti-cancer activity. Cells are grown in 96 well plates and exposed to the test compound for 48 hours. Compounds are tested at a single concentration, which is 10^-5 M for most compounds. The reported endpoint is percent growth (GI% or GIPRCNT), where numbers from 0 - 100% represent growth inhibition, and numbers from -100% - 0 represent cell death. […]
The panel holds about 83,000 compounds, 20% with a hit somewhere; the sample as a whole holds those more often. Activity calls are given as the source filed them. How the source made its calls: active means growth percent below 10; inactive means the rest.
READOUT_NAME: growth

INSERT INTO results (compound, target_or_system, observed_measurement) VALUES
  ('COc1ccc(CN2C(=O)OC(C)(COC(C)=O)C2=O)cc1 (stereo not given)', 'A549/ATCC NSCLC', '94.5% (inactive)'),
  ('COc1cc(C=Nc2oc(-c3ccccc3)c(-c3ccccc3)c2C#N)cc(CN2CCCC2)c1O', 'A549/ATCC NSCLC', '94.4% (inactive)'),
  ('CCCn1c(=S)sc2c(NNC(C)=O)nc(C)nc21', 'A549/ATCC NSCLC', '89.1% (inactive)'),
  ('CCn1cc(Cc2cc(C(=O)Nc3cc4cc(OC)c(OC)cc4c(C)n3)ccc2Cl)cn1', 'A549/ATCC NSCLC', '38.9% (inactive)'),
  ('COc1ccc(OC)c(Nc2nnc(-c3cc(OC)c(OC)c(OC)c3)o2)c1', 'A549/ATCC NSCLC', '101% (inactive)'),
  ('Nc1cc(-c2ccc(Cl)cc2)nn1-c1nnc(/C=C/c2ccco2)c(=O)[nH]1', 'A549/ATCC NSCLC', '37.3% (inactive)'),
  ('Cc1nn(-c2ccc([N+](=O)[O-])cc2)c2ncnc(N/N=C/c3ccccc3O)c12', 'A549/ATCC NSCLC', '13% (inactive)'),
  ('CC(C)NS(=O)(=O)/N=C1\NC(=O)NC1=C(Cl)Cl', 'A549/ATCC NSCLC', '94% (inactive)'),
  ('CCOc1ccc(NC(=O)Nc2ccc(OCC)cc2)cc1', 'A549/ATCC NSCLC', '95.9% (inactive)'),
  ('O=C1Nc2ccc(Cl)cc2/C1=C/c1ccc[nH]1', 'A549/ATCC NSCLC', '90.3% (inactive)'),
  ('N=C(N)c1ccc(-c2ccc(-c3ccccc3)o2)o1', 'A549/ATCC NSCLC', '26.2% (inactive)'),
  ('O=C(Nc1ccc(Nc2ccncc2)cc1)c1ccc(Nc2ccnc3ccc([N+](=O)[O-])cc23)cc1', 'A549/ATCC NSCLC', '94.7% (inactive)'),
  ('CCN(CC)CCOc1ccc2c(-c3ccccc3)c(-c3ccc(OC)cc3)c(=O)oc2c1', 'A549/ATCC NSCLC', '70.6% (inactive)'),
  ('Cc1ccc(-c2csc(NC(=O)CSc3nc(N)cc(N)n3)n2)cc1', 'A549/ATCC NSCLC', '62.7% (inactive)'),
  ('O=C(N/N=C/c1ccc(Cl)cc1)c1ccc(NC(=O)c2ccccn2)cc1', 'A549/ATCC NSCLC', '26.1% (inactive)'),
  ('OC1(c2ccccc2)c2ccccc2N(c2ccccc2)c2ccc(Cl)cc21 (stereo not given)', 'A549/ATCC NSCLC', '-12.5% (active)'),
  ('COCCn1cc(-c2nc(-c3c[nH]c4ncccc34)cs2)c2ccccc21', 'A549/ATCC NSCLC', '52.2% (inactive)'),
  ('COc1ccc(/C=C(\C(=O)NCc2cccnc2)S(=O)(=O)c2ccccc2)cc1OC', 'A549/ATCC NSCLC', '45.7% (inactive)'),
  ('O=C1c2cccnc2C(=O)c2c1c(C(=O)OCCc1ccccn1)c1ccccn21', 'A549/ATCC NSCLC', '-65.9% (active)'),
  ('O=C(O)CC(C(=O)O)/C(=C\c1ccccc1)c1ccccc1 (stereo not given)', 'A549/ATCC NSCLC', '99.5% (inactive)'),
  ('c1cc(OCCCCCOc2cccc(-c3nc4ccccc4[nH]3)c2)cc(-c2nc3ccccc3[nH]2)c1', 'A549/ATCC NSCLC', '13.9% (inactive)'),
  ('CCOC(=O)c1ccc[nH]1', 'A549/ATCC NSCLC', '93% (inactive)'),
  ('C=C1C(=O)O[C@H]2[C@H]1CC/C(COC(=O)/C=C\C(=O)NCc1ccc(Cn3c(=O)sn(CCCCl)c3=O)cc1)=C\CC[C@@]1(C)O[C@@H]21', 'A549/ATCC NSCLC', '92.7% (inactive)'),
  ('Cc1c2cnccc2c(C)c2c1c1cc(CO)ccc1n2C', 'A549/ATCC NSCLC', '-28.2% (active)'),
  ('COc1cccc(CNc2c3ccccc3nc3ccccc23)c1OC', 'A549/ATCC NSCLC', '30.3% (inactive)'),
  ('COc1cc2c(c(OC)c1OC)CCC(c1cccc(C(=O)Nc3ccc(Br)cc3)c1)O2 (stereo not given)', 'A549/ATCC NSCLC', '64.2% (inactive)'),
  ('CCOC(=O)c1nnn(Cc2cc(=O)oc3ccc(O)cc23)c1C', 'A549/ATCC NSCLC', '98.6% (inactive)'),
  ('Cn1c2ccccc2c2c3c(c4c5cc(Br)ccc5n(C)c4c21)C(=O)N(O)C3=O', 'A549/ATCC NSCLC', '40.3% (inactive)'),
  ('C=C1C(=O)O[C@H]2[C@H]1CC/C(COC(=O)NCc1ccc(Cn3c(=O)sn(-c4ccccc4)c3=O)cc1)=C\CC[C@@]1(C)O[C@@H]21', 'A549/ATCC NSCLC', '114% (inactive)'),
  ('CCN(CC)CCCC(Cc1ccccc1)Nc1c2ccc(Cl)cc2nc2ccc(OC)cc12 (stereo not given)', 'A549/ATCC NSCLC', '39.3% (inactive)'),
  ('CC(C)(C)OC(=O)CN1CCc2c(sc3ncnc(N4CCN(c5ccc(F)cc5)CC4)c23)C1', 'A549/ATCC NSCLC', '90.3% (inactive)'),
  ('CCNC(=O)N1CCc2c(Br)c3c(c(OC)c2C1Cc1ccc(OC)cc1)OCO3 (stereo not given)', 'A549/ATCC NSCLC', '34.2% (inactive)'),
  ('CN1CC(c2ccc(Br)cc2)C(C(=O)c2ccc(Br)cc2)C12C(=O)Nc1ccccc12 (stereo not given)', 'A549/ATCC NSCLC', '59.2% (inactive)'),
  ('CC(C)=CC(=O)N[C@H]1CC[C@]2(C)C3CC[C@]4(C)C(C(C)N(C)C)=CCC4C3CCC2[C@H]1O (stereo not given in full)', 'A549/ATCC NSCLC', '75.5% (inactive)'),
  ('COCCn1cc(-c2csc(-c3c[nH]c4ccccc34)n2)c2cccnc21', 'A549/ATCC NSCLC', '25% (inactive)'),
  ('COCC(=O)Oc1cc(-c2ccc(C)cc2C)c(OC(=O)COC)c(-c2ccc(C)cc2C)c1', 'A549/ATCC NSCLC', '43.7% (inactive)'),
  ('CC1(C)CC[C@]23CC[C@]4(C)[C@H](CC[C@@H]5[C@@]6(C)C/C(=C/O)C(=O)C(C)(C)[C@@H]6CC[C@]54C)[C@H]2[C@H]1OC3', 'A549/ATCC NSCLC', '106% (inactive)'),
  ('O=C(c1ccc(Br)cc1)C(Br)C(c1ccc(Cl)cc1)C(c1ccccc1)[N+](=O)[O-] (stereo not given)', 'A549/ATCC NSCLC', '93.8% (inactive)'),
  ('Cn1c(=O)c2[nH]c(SC/C(=N/O)c3ccc(Br)cc3)nc2n(C)c1=O', 'A549/ATCC NSCLC', '60.4% (inactive)'),
  ('O=C(Nc1ccccc1O)c1ccc(CNc2ccnc(C(F)(F)F)c2)cc1', 'A549/ATCC NSCLC', '56.5% (inactive)');

Reference for the values: PubChem BioAssay (NCI)
